All values here come from patent US20230265183A1.

target entity: T1, human Nectin-4 (human, UniProt Q96NY8 32-510)
T1 sequence (looked up): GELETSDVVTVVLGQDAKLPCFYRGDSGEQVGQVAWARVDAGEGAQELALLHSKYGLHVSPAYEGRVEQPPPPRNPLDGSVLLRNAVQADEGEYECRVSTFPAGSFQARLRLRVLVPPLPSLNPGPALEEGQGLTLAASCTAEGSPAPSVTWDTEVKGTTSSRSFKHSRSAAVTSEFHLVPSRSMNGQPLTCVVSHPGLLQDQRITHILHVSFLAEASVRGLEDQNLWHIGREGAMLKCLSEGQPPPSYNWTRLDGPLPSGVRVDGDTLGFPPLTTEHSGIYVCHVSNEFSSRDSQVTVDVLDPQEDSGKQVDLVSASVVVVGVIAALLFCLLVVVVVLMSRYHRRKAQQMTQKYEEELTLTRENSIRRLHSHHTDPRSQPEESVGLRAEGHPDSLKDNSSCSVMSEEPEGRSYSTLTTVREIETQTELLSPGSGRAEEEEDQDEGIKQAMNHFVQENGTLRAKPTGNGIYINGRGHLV
run description: cell-based or functional assay
Reported Endocytosis efficiency (%) values for the following binders.

# binder, uom, Endocytosis efficiency (%)
data = [
    ("42D20 hz21 (antibody, V domains shown, Humanized) VH: QVQLQESGPGLVKPSETLSLTCTVSGFSLIDYGVSWIRQPPGKGLEWIGVIWGEGKIYYNSVLKSRVTISKDNSKSQVSLKLSSVTAADTAVYYCAKQGGLLFYAMDYWGQGTLVTVSS VL: DIVMTQSPDSLAVSLGERATINCKSSQSLLNSYSQKNYLAWYQQKPGQSPKLLIYFASTRESGVPDRFSGSGSETDFTLTISSLQAEDLAVYFCQQHYNTPFTFGAGTKLELKR", "%", 43.9),
    ("42D20 hz01 (antibody, V domains shown, Humanized) VH: QVQLQESGPGLVKPSETLSLTCTVSGFSLIDYGVSWIRQPPGKGLEWIGVIWGDGKIYYNSVLKSRVTISVDTSKNQFSLKLSSVTAADTAVYYCARQGGLLFYAMDYWGQGTLVTVSS VL: DIVMTQSPDSLAVSLGERATINCKSSQSLLNSYSQKNYLAWYQQKPGQSPKLLIYFASTRESGVPDRFSGSGSETDFTLTISSLQAEDLAVYFCQQHYNTPFTFGAGTKLELKR", "%", 41.5),
    ("42D20 hz23 (antibody, V domains shown, Humanized) VH: QVQLQESGPGLVKPSETLSLTCTVSGFSLIDYGVSWIRQPPGKGLEWIGVIWGEGKIYYNSVLKSRVTISKDNSKSQVSLKLSSVTAADTAVYYCAKQGGLLFYAMDYWGQGTLVTVSS VL: DIVMTQSPDSLAVSLGERATINCKSSQSLLNTYSQKNYLAWYQQKPGQSPKLLIYFASTRESGVPDRFSGSGSETDFTLTISSLQAEDLAVYFCQQHYNTPFTFGAGTKLELKR", "%", 45),
]
